B1: Pistol ribozyme (parent)
chain: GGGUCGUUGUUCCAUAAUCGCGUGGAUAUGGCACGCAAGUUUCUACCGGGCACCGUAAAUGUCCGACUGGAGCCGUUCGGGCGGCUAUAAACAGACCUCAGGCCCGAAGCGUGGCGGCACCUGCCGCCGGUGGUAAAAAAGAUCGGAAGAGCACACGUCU

Variants of: B1
Experiment: aptazyme ON/OFF ratio, guanine; higher = stronger switching; co-transcriptional cleavage with and without guanine
Reported aptazyme ON/OFF ratio values follow for various variants

- mutation_code: "U8C U11A C13A"
  aptazyme ON/OFF ratio: 1.13
- mutation_code: "U7G U8C G9U U10G U11A C12G"
  aptazyme ON/OFF ratio: 1.34
- mutation_code: "U7A U8G U10C U11G C12A"
  aptazyme ON/OFF ratio: 1.43
- mutation_code: "U7G U8A C12A C13G"
  aptazyme ON/OFF ratio: 1.14
- mutation_code: "U7C U8G G9C U10A U11A C12U"
  aptazyme ON/OFF ratio: 1.26
- mutation_code: "U7A U8C G9A U10A C12U"
  aptazyme ON/OFF ratio: 1.17
- mutation_code: "U7C G9A U10G U11C C13U"
  aptazyme ON/OFF ratio: 1.06
- mutation_code: "U7A U10A U11G C12G C13G"
  aptazyme ON/OFF ratio: 1.11
- mutation_code: "U7G U8A G9A U10A U11A C12G C13A"
  aptazyme ON/OFF ratio: 1.1
- mutation_code: "U7A U8C G9U U10G U11G C12G C13G"
  aptazyme ON/OFF ratio: 1.22
- mutation_code: "U7G U8G G9U U10G U11C C12U C13A"
  aptazyme ON/OFF ratio: 1.06
